// provenance: ChEMBL document CHEMBL3988442

Recorded Percent Effect by entry
Tested on: Wolbachia pipientis
assay-details: Anti-Wolbachia Cell-Based Screen
Format: functional
Design: scale not given: in the data most compounds retested in dose-response had high values
condition-notes: 5 µM
The whole screen tested about 48,000 compounds, of which about 13,000 (27%) showed an effect of 50% or more. Some of the results follow.
recorded-metric: Percent Effect (%)

{"compound": "Cc1ccsc1C(=O)N1CCCC(c2[nH]ncc2S(C)(=O)=O)C1 (configuration not stated)", "recorded-metric": "Percent Effect", "unit-tag": "%", "result-number": 116.3}
{"compound": "CCc1noc(CN(CC)C(=O)c2ccc3ncsc3c2)n1", "recorded-metric": "Percent Effect", "unit-tag": "%", "result-number": -4.547}
{"compound": "Cc1ccc(C(=O)N2CCCC(c3[nH]ncc3S(C)(=O)=O)C2)s1 (configuration not stated)", "recorded-metric": "Percent Effect", "unit-tag": "%", "result-number": 93.28}
{"compound": "Cc1cccnc1C(=O)N1CCCC(c2[nH]ncc2S(C)(=O)=O)C1 (configuration not stated)", "recorded-metric": "Percent Effect", "unit-tag": "%", "result-number": -6.313}
{"compound": "O=C(NCCc1cccs1)[C@H]1CO[C@H]2CCN(C3CCC3)C[C@H]2C1.O=C(O)C(F)(F)F", "recorded-metric": "Percent Effect", "unit-tag": "%", "result-number": 119.1}
{"compound": "O=S(=O)(NCC1CCN(c2cnccn2)CC1)C1CC1", "recorded-metric": "Percent Effect", "unit-tag": "%", "result-number": 99.54}
{"compound": "Cc1ncncc1C(=O)N1CCCC(c2[nH]ncc2S(C)(=O)=O)C1 (configuration not stated)", "recorded-metric": "Percent Effect", "unit-tag": "%", "result-number": 130.2}
{"compound": "O=C(NCCc1cccs1)[C@]12COC[C@H]1CN(C1CCOCC1)C2.O=C(O)C(F)(F)F", "recorded-metric": "Percent Effect", "unit-tag": "%", "result-number": -30.21}
{"compound": "Cc1csc(C(=O)N2CCCC(c3[nH]ncc3S(C)(=O)=O)C2)c1 (configuration not stated)", "recorded-metric": "Percent Effect", "unit-tag": "%", "result-number": 97.17}
{"compound": "O=C(NCc1ccccc1)N1C[C@H]2C[C@H](C(=O)N3CCCC3)[C@@H](C1)O2", "recorded-metric": "Percent Effect", "unit-tag": "%", "result-number": 8.283}
{"compound": "O=C(Nc1ccccc1)N1C[C@H]2C[C@H](C(=O)N3CCOCC3)[C@@H](C1)O2", "recorded-metric": "Percent Effect", "unit-tag": "%", "result-number": 114.8}
{"compound": "CCc1ccc(CN2CCC(CNS(=O)(=O)C3CC3)C2)nc1 (configuration not stated)", "recorded-metric": "Percent Effect", "unit-tag": "%", "result-number": -5.185}
{"compound": "Cc1ccccc1N1CCN(C(=O)c2cnc(N(C)C)nc2C)C(C)C1 (configuration not stated)", "recorded-metric": "Percent Effect", "unit-tag": "%", "result-number": 26.11}
{"compound": "Nc1ncc(C(=O)N2CCC(O)(CO)CC2)c(-c2ccccc2)n1", "recorded-metric": "Percent Effect", "unit-tag": "%", "result-number": -11.61}
{"compound": "Cc1ncncc1C(=O)N1CCCN(Cc2ncc(Cl)n2C)CC1", "recorded-metric": "Percent Effect", "unit-tag": "%", "result-number": 13.88}
{"compound": "Cc1ccc(C(=O)N2CCCC(Cn3cc(C(C)(C)N)nn3)C2)s1 (configuration not stated)", "recorded-metric": "Percent Effect", "unit-tag": "%", "result-number": -58.84}
{"compound": "Cc1[nH]ncc1C(=O)N1CCCC(c2cc(C(F)(F)F)[nH]n2)C1 (configuration not stated)", "recorded-metric": "Percent Effect", "unit-tag": "%", "result-number": -5.603}
{"compound": "CNC(=O)[C@H]1C[C@@H]2CN(C(=O)Nc3ccc(F)cc3)C[C@H]1O2", "recorded-metric": "Percent Effect", "unit-tag": "%", "result-number": -4.608}
{"compound": "O=C(NCc1cccs1)c1nc2c(o1)CN(CC1CC1)C2.O=C(O)C(F)(F)F", "recorded-metric": "Percent Effect", "unit-tag": "%", "result-number": -6.948}
{"compound": "O=S(=O)(Cc1ccccc1)NCC1CCN(c2cnccn2)CC1", "recorded-metric": "Percent Effect", "unit-tag": "%", "result-number": -2.116}
{"compound": "Cc1ncc(CN2CCC(CNS(=O)(=O)C3CC3)C2)cn1 (configuration not stated)", "recorded-metric": "Percent Effect", "unit-tag": "%", "result-number": -9.849}
{"compound": "CC(C)c1ccc(S(=O)(=O)Cc2nc(N)nc(N(C)C)n2)cc1", "recorded-metric": "Percent Effect", "unit-tag": "%", "result-number": 13.19}

###

System: Wolbachia pipientis
assay-details: Anti-Wolbachia Cell-Based Screen
Assay type: functional
Parameters: scale not given: in the data most compounds retested in dose-response had high values
condition-notes: 5 µM
In all, about 48,000 compounds went through this assay and about 13,000 (27%) showed an effect of 50% or more. Some of the results follow.
Recorded Percent Effect by entry
recorded-metric: Percent Effect (%)

{"molecule": "CN(C)C(=O)Cn1ccc2cc(NC(=O)N3CCSCC3)ccc21", "result-number": -2.006}
{"molecule": "CCN1CCN(Cc2nc(Cc3ccccc3)n[nH]2)CC1", "result-number": 2.697}
{"molecule": "Cn1cc(CN2C[C@H]3CCC[C@@H](CNc4nccn4C)[C@H]3C2)cn1.O=C(O)C(F)(F)F", "result-number": -10.56}
{"molecule": "Cn1c(SCC(O)COCc2ccc(Cl)cc2)nnc1C1CC1 (stereo not drawn)", "result-number": -3.183}
{"molecule": "NC(=O)COc1ccc(CN2CCC3(CC2)[C@H](O)C[C@@H]3O)cc1Cl", "result-number": 17.24}
{"molecule": "C=C(C)CN(CC)C(=O)c1cc(F)ccc1NS(C)(=O)=O", "result-number": 23.28}
{"molecule": "CCOc1cccc(C(=O)N2CCC3(CC2)[C@H](O)C[C@@H]3OC)c1", "result-number": 2.834}
{"molecule": "CC(C)N1CCOCC2(CCCN(C(=O)c3cn(C)cn3)C2)C1.O=C(O)C(F)(F)F (stereo not drawn)", "result-number": -9.46}
{"molecule": "CC[C@@]1(O)CCN(CCCOc2ccc(C(N)=O)cc2)C[C@H]1O", "result-number": 95.4}
{"molecule": "CCN(CC1CCOC1)C(=O)c1cc(Cl)c2c(c1)OCO2 (stereo not drawn)", "result-number": -2.452}
{"molecule": "CO[C@H]1C[C@@H](O)C12CCN(CCCOc1ccc(C(N)=O)cc1)CC2", "result-number": 113.2}
{"molecule": "Cc1ccc2nc(C)c(C)c(C(=O)N3CCS(=O)(=O)CC3)c2c1", "result-number": 7.171}
{"molecule": "C=C(C)CN(CC)C(=O)c1cc(C)ccc1NS(C)(=O)=O", "result-number": 12.91}
{"molecule": "CCS(=O)(=O)N1CCC(CSc2ccccc2)C1 (stereo not drawn)", "result-number": -7.795}
{"molecule": "CCN(CC1CCOC1)C(=O)Nc1ccc(N2CCCC2)nc1 (stereo not drawn)", "result-number": -5.429}
{"molecule": "CC(NCc1ccncc1)c1cc(F)ccc1N1CCN(C)CC1 (stereo not drawn)", "result-number": -0.924}
{"molecule": "CC(C)(C)C(O)CN1CCN(CC(=O)NCC(F)(F)F)CC1 (stereo not drawn)", "result-number": 8.391}
{"molecule": "CCN(CC1CCOC1)C(=O)c1ccc(N2CCOCC2)c(F)c1 (stereo not drawn)", "result-number": 110.6}
{"molecule": "CN(C)Cc1ccc(C2CCCCN2C(=O)c2cccc(CO)n2)cc1 (stereo not drawn)", "result-number": 7.792}
{"molecule": "CN1CCN(C(=O)c2ccc(=O)n(C)c2)c2ccccc21", "result-number": 6.731}
{"molecule": "CN(C)CCO[C@H]1C[C@@H](O)C12CCN(c1ncccc1Cl)CC2", "result-number": -1.379}
{"molecule": "Cc1ccc(CNC(C)c2cc(F)ccc2N2CCN(C)CC2)o1 (stereo not drawn)", "result-number": -9.069}
{"molecule": "CC(C#N)CSc1ccccc1NCC(=O)NCc1ccccc1 (stereo not drawn)", "result-number": 17.5}

###

Tested on: Wolbachia pipientis
assay-details: Anti-Wolbachia Cell-Based Screen
Type: functional
Parameters: scale not given: in the data most compounds retested in dose-response had high values
condition-notes: 5 µM
The campaign covered roughly 48,000 compounds. About 13,000 (27%) showed an effect of 50% or more. Some of the results follow.

{"compound": "CCNC(=O)Cc1c(C)nc2c(c1C)c(=O)[nH]n2C", "system": "Wolbachia pipientis", "Percent Effect / %": -13.5}
{"compound": "Cn1cc(NC(=O)NCc2ccsc2)ccc1=O", "system": "Wolbachia pipientis", "Percent Effect / %": -5.862}
{"compound": "CC(=O)N1C[C@@H](F)[C@@H](OCc2nc3ccc(C#N)cc3[nH]2)C1", "system": "Wolbachia pipientis", "Percent Effect / %": -0.3332}
{"compound": "CCOCCCC(=O)NCc1ccc(N2CCCCC2)cc1", "system": "Wolbachia pipientis", "Percent Effect / %": 1.636}
{"compound": "CSc1ccc(NCC(=O)Nc2c(C)nn(C)c2C)cc1F", "system": "Wolbachia pipientis", "Percent Effect / %": -13.07}
{"compound": "CN(c1ccc(CNC(=O)c2c[nH]c(=O)c(Cl)c2)cc1)C1CCCCC1", "system": "Wolbachia pipientis", "Percent Effect / %": 0.5041}
{"compound": "CCOCCCNC(=O)CCCC(=O)n1nc(C)c2ccccc21", "system": "Wolbachia pipientis", "Percent Effect / %": 114.3}
{"compound": "CCCNC(=O)CCC(=O)n1nc(C)c2ccccc21", "system": "Wolbachia pipientis", "Percent Effect / %": 168.2}
{"compound": "CCOc1cc(F)ccc1NC(=O)N(C(C)CS(C)(=O)=O)C1CC1 (configuration not stated)", "system": "Wolbachia pipientis", "Percent Effect / %": -6.232}
{"compound": "O=C1CN(C(=O)CSC2CCCc3ccccc32)CCN1 (configuration not stated)", "system": "Wolbachia pipientis", "Percent Effect / %": -8.523}
{"compound": "CCCNC(=O)CCNC(=O)N1CCC(=Cc2ccccc2)CC1", "system": "Wolbachia pipientis", "Percent Effect / %": 1.443}
{"compound": "Cc1nc2c(c(C)c1CC(=O)Nc1ccnn1C(C)C)c(=O)[nH]n2C", "system": "Wolbachia pipientis", "Percent Effect / %": -7.188}
